Response field label takes T when CO2 permeability is strictly below 20 Barrer and F in all other cases.

Example results:
*Oc1ccc(N2C(=O)CCC23CCC(=O)N3c2ccc(Oc3c(F)c(F)c(COC(C4CCCC(C(OCc5c(F)c(F)c(*)c(F)c5F)(C(F)(F)F)C(F)(F)F)C4)(C(F)(F)F)C(F)(F)F)c(F)c3F)cc2)cc1 (repeat unit)    T
*CC(*)c1ccc(C(C)(C)C)cc1 (repeat unit)    F
*c1ccc(Oc2ccc(N3C(=O)c4cc(Oc5ccc(C)cc5)c(-c5cc6c(cc5Oc5ccc(C)cc5)C(=O)N(*)C6=O)cc4C3=O)cc2)cc1 (repeat unit)    F
*CC(*)c1ccc([Si](C)(C)CCCC(F)(F)F)cc1 (repeat unit)    F
*N=P(*)(C)C (repeat unit)    F
*/C(C)=C(/*)[Si](C)(C)C(C)C (repeat unit)    F

Exam item: Consider the compound *c1cccc(-c2nnc(*)n2-c2ccccc2)c1 (repeat unit) . Is its CO2 permeability strictly less than 20 Barrer?
Marked response: T

----------
// values below are reported CO2 permeability
API: value field is a number in Barrer; no unit string.

Answered examples (5):
*c1cccc(Oc2ccc(C(c3ccc(Oc4cccc(-n5c(=O)c6cc7c(=O)n(*)c(=O)c7cc6c5=O)c4)cc3)(C(F)(F)F)C(F)(F)F)cc2)c1 (repeat unit)    6.12
*c1ccc(C(c2ccc(N3C(=O)c4ccc(C(=O)c5ccc6c(c5)C(=O)N(*)C6=O)cc4C3=O)cc2)(C(F)(F)F)C(F)(F)F)cc1 (repeat unit)    17.5
*CC(*)(C)C(=O)OCCOCCOCCOCC (repeat unit)    74.4
*C(=C(*)c1ccc2c(c1)C(C)(C)CCC2(C)C)c1ccccc1 (repeat unit)    11400
*c1ccc2c(-c3c(O)ccc4cc(N5C(=O)c6ccc(C(c7ccc8c(c7)C(=O)N(*)C8=O)(C(F)(F)F)C(F)(F)F)cc6C5=O)ccc34)c(O)ccc2c1 (repeat unit)    4.32

Exam item: Tell us which CO2 permeability value is on record for *CC(*)Cl (repeat unit)
Marked response: 0.16

Exam item: Tell us which CO2 permeability value is on record for *Oc1ccc(-c2ccc(Oc3ccc(S(=O)(=O)c4ccc(*)cc4)cc3)cc2)cc1 (repeat unit)
Marked response: 5.6

Exam item: Tell us which CO2 permeability value is on record for *CC(*)c1ccc(Br)cc1 (repeat unit)
Marked response: 8.5

Exam item: Tell us which CO2 permeability value is on record for *c1ccc(Sc2ccc(Sc3ccc(Sc4ccc(N5C(=O)c6ccc(C(c7ccc8c(c7)C(=O)N(*)C8=O)(C(F)(F)F)C(F)(F)F)cc6C5=O)cc4)cc3)cc2)cc1 (repeat unit)
Marked response: 8.37

Exam item: Tell us which CO2 permeability value is on record for *Oc1ccc(C(c2ccc(OC(=O)c3cccc(C(*)=O)c3)cc2)(C(F)(F)F)C(F)(F)F)cc1 (repeat unit)
Marked response: 16.6

Exam item: Tell us which CO2 permeability value is on record for *C(=C(*)c1ccc2c(c1)C(C)(C)c1ccccc1-2)c1ccc(C(C)(C)C)cc1 (repeat unit)
Marked response: 11000

----------
// values below are reported CH4 permeability
API: value field is a number in Barrer; no unit string.

Answered examples (3):
*C(=C(*)c1ccc2c(c1)C(C)(C)c1ccccc1-2)c1ccc(C(C)(C)C)cc1 (repeat unit)    6600
*Oc1ccc(C(c2ccc(OC(=O)c3cccc(C(*)=O)c3)cc2)(C(F)(F)F)C(F)(F)F)cc1 (repeat unit)    0.736
*c1ccc(Oc2ccc(-c3ccc(-c4ccc(Oc5ccc(N6C(=O)c7ccc(C(c8ccc9c(c8)C(=O)N(*)C9=O)(C(F)(F)F)C(F)(F)F)cc7C6=O)cc5)c(C(F)(F)F)c4)s3)cc2C(F)(F)F)cc1 (repeat unit)    1.68

The record that follows has no CH4 permeability shown yet.
Exam item: Tell us which CH4 permeability value is on record for *Sc1ccc(*)cc1 (repeat unit)
Marked response: 0.066
